Tested on: DIV30
Assay: qHTS profiling for inhibitors of Plasmodium falciparum proliferation (AID 504749);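 further: 0% = DMSO vehicle and full inhibition = artemisinin control; nearly all actives have a fitted effect of over 60% in size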
Conditions: P. falciparum in erythrocytes, SYBR Green DNA, 72 h; series mostly up to 28.7 µM
Experimental: NIH National Institute of Allergy and Infectious Diseases [NIAID] NIH Chemical Genomics Center [NCGC] […] Because mature erythrocytes lack DNA, only Plasmodium-derived DNA is detected. NCGC Assay Protocol Summary: The SYBR Green viability assay was adapted from a method described previously (Plouffe et al., 2008). […] The following morning, fluorescence intensity at 485(14) nm excitation and 535(25) nm emission wavelengths was measured on an EnVision (Perkin Elmer) plate reader. […]
Results filed as inconclusive are left out. The source made the active and inactive calls. The call rests on the fitted dose curve; in most records, active means well fitted inhibition curve with a large enough effect; inconclusive means small, poorly fitted or top-dose-only effect; inactive means flat fitted curve, though single readings scatter.
# valid calls are t for active, f for inactive; nothing else

Task item: State the result this test recorded for CC1(C)CC1C(=O)N/C(=C/CCCCSCC(N)C(=O)O)C(=O)O (stereo not drawn) .
Reply: f

Task item: Also C[C@@H]1CCN(C(=O)[C@H](CCCNC(=N)N)NS(=O)(=O)c2cccc3c2NC[C@H](C)C3)[C@@H](C(=O)O)C1 , if possible.
Reply: f

Task item: Also C[C@]12CC[C@@H]3c4ccc(O)cc4CC[C@H]3[C@@H]1CCC2OC(=O)CCC1CCCC1 (stereo partly drawn) , if possible.
Reply: f

----------
Assay: Stat Signaling Pathway (AID 446);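 further: ME-180 cervical cancer cells given 40 pM IL-6 alongside compound; SIE-controlled beta-lactamase reporter measured as 460/530 nm FRET emission ratio; on the % scale 0 is the no-effect control and ±100 the full control effect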
Conditions: ME-180 (cervical carcinoma) SIE beta-lactamase reporter, IL-6 stimulated, 5 h; at 17.2 µM (top of the series) unless noted
Results filed as inconclusive are left out.
Reported endpoint: activity, negative = inhibition (%)
Answers are plain numbers, in %.

Some solved cases for reference:
- Compound: "CC(NC(=O)NCCCC(=O)O)(C(F)(F)F)C(F)(F)F"
  Recorded number: 1.17
- Compound: "CC(=O)NC(=O)Nc1sc(=S)n(C)c1C"
  Recorded number: 1.93
- Compound: "CCOC(=O)c1[nH]c2ccc(F)cc2c1N=C(C)N(CC)CC"
  Recorded number: 5.12
- Compound: "Cc1cccc(OCC(=O)NCC(=O)n2nc(C)cc2C)c1"
  Recorded number: 4.06
- Compound: "COc1ccc(OC)c(N=C(C)C2=C(O)COC2=O)c1"
  Recorded number: -3.94
- Compound: "CSc1cc(C)nc(N(C)C(C)=O)n1"
  Recorded number: -0.18
- Compound: "N#Cc1nc(-c2cccs2)oc1NCCc1ccccc1"
  Recorded number: -12.8
- Compound: "CCN(CC)CCCN1C(=O)C(=O)/C(=C(/O)c2ccccc2)C1c1ccccn1 (stereo unspecified)"
  Recorded number: 3.59

Provide each entry's activity, negative = inhibition from the list below.
1. CCN(CC)C(=O)C1CCN(c2ncnc3c2cnn3-c2ccc(C)cc2C)CC1
2. COc1cc(C2C(C(=O)c3sc(C)nc3C)=C(O)C(=O)N2CCN(C)C)cc(OC)c1OC (stereo unspecified)
3. CCN(CC)CCCN1C(=O)C(=O)/C(=C(/O)c2ccc(C)cc2)C1c1ccccn1 (stereo unspecified)

Reply:
1: -7.04; 2: 8.27; 3: 4.05

----------
Test: Cell Viability - LYMP2-023 (AID 975);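 further: cells exposed to compound for 24 hours at 37 °C; nearly all actives have a fitted effect of over 55% in size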
Conditions: LYMP2-023 lymphoblastoid cell viability; series mostly up to 92.2 µM
Inconclusive results are not listed. Active and inactive are the calls of the source. Calls come from the whole dose curve; as a rule, active = well fitted cell-killing curve with a large enough effect; inconclusive = small, poorly fitted or top-dose-only effect; inactive = flat fitted curve, though single readings scatter.
# valid calls are active, inactive; nothing else

Consider the following illustrative entries.
- Compound: "CN(C)c1ccc(C2(c3ccc(N(C)C)cc3)OC(=O)c3cc(N(C)C)ccc32)cc1"
  Class: "inactive"
- Compound: "c1ccc2c(c1)ccc1cc3c(ccc4ccccc43)cc12"
  Class: "inactive"
- Compound: "O=C=Nc1ccc(Cc2ccc(N=C=O)cc2)cc1"
  Class: "inactive"
- Compound: "Cc1cc(Nc2ccc(O)cc2)ccc1N"
  Class: "active"
- Compound: "C=C(C)c1ccccc1"
  Class: "inactive"
- Compound: "O=C(OCC(COC(=O)c1ccccc1)(COC(=O)c1ccccc1)COC(=O)c1ccccc1)c1ccccc1"
  Class: "inactive"
- Compound: "Nc1ccc2cc3ccccc3cc2c1"
  Class: "inactive"
- Compound: "C=CC(=O)OCCOCCOC(=O)C=C"
  Class: "active"
- Compound: "CN1[C@H]2CC(OC(=O)[C@H](CO)c3ccccc3)C[C@H]1[C@H]1O[C@H]12 (stereo partly drawn)"
  Class: "inactive"
- Compound: "C/C=C1\\C(=O)C[C@H]2[C@@H]3CCC4=CC(=O)CC[C@]4(C)[C@H]3CC[C@]12C"
  Class: "inactive"

Task item: State the result this test recorded for CCC(C)Nc1ccc(NC(C)CC)cc1 (stereo not drawn) .
Reply: active

Task item: Also O=C(/C=C/c1ccc(O)c(O)c1)OC1C[C@](O)(C(=O)O)C[C@@H](O)[C@H]1O (stereo partly drawn) , if possible.
Reply: inactive

Task item: Also c1ccc2c(c1)-c1cccc3c1c-2cc1ccccc13 , if possible.
Reply: inactive
